Values from the supplement of paper PMC7125110

B1: glmS ribozyme (parent)
chain: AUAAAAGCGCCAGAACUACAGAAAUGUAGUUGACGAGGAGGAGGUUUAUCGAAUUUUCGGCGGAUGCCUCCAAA

variants of: B1; test: self-cleavage kobs at 640 uM GlcN6P; higher = faster cleavage; RNA array; settings: with glucosamine-6-phosphate
Fewer inactive variants are shown than the library holds.
Result Type: self-cleavage kobs at 640 uM GlcN6P (s⁻¹)
Please give a number only; it is taken to be in s⁻¹.

self-cleavage kobs at 640 uM GlcN6P for G43C C68U is 0.000235

Memo: G40C C70G , reported self-cleavage kobs at 640 uM GlcN6P: 5.48e-05

Data point: G38U U57G C67U C70U ; self-cleavage kobs at 640 uM GlcN6P = 0.000114

// self-cleavage kobs at 640 uM GlcN6P value for C16G C71G : 8e-05

According to the records, this variant A14G U54C displays self-cleavage kobs at 640 uM GlcN6P of 0.0185

The reported value for A14C U65G in terms of self-cleavage kobs at 640 uM GlcN6P is 0.000206

Item: G37A A39U | self-cleavage kobs at 640 uM GlcN6P: 0.00028

Documented self-cleavage kobs at 640 uM GlcN6P of U45G U54C : 0.00308

self-cleavage kobs at 640 uM GlcN6P in this record for U47C C50A U69G : 5.61e-05

# self-cleavage kobs at 640 uM GlcN6P (variant: U31G U69A ) is 0.00012
